molecular target: HCV NS3•4A protease WT (Hepatitis C virus genotype 1b, UniProt Q9WMX2)
QUANTITY_NAME: IC50 (nM)
The answer is to be given in nM; state only the numeric part.

Problem: Looking for the measured IC50 of C=CC(=O)NC[C@H](NC(=O)OC(C)(C)C)C(=O)N1C[C@H](OC(=O)N2Cc3cccc(F)c3C2)C[C@H]1C(=O)N[C@]1(C(=O)NS(=O)(=O)C2CC2)C[C@H]1C=C , can you help?
Solution: 0.66

====

molecular target: HCV NS3/4A 1b protease D168A (Hepatitis C virus genotype 1b, UniProt Q9WMX2, D1194A); construct: 10× stocks of NS3/4A protease enzyme from Bioenza (Mountain View, Calif.); purchased Bioenza (Mountain View, Calif.); assay: HCV protease FRET assay (IC50), Example 15; type: biochemical; conditions: Comparative IC50 Values, D168A, biochemical assay; applicant's compound
QUANTITY_NAME: pIC50
Schema: pIC50 number; meaning minus log10 of the concentration expressed in molar units.

Problem: What does the data say about its pIC50? Entry: C=CC(=O)NC[C@H](NC(=O)OC(C)(C)C)C(=O)N1C[C@H](OC(=O)N2Cc3cccc(F)c3C2)C[C@H]1C(=O)N[C@]1(C(=O)NS(=O)(=O)C2CC2)C[C@H]1C=C
Solution: 8.10

====

target: HCV NS3/4A 1b protease D168A (Hepatitis C virus genotype 1b, UniProt Q9WMX2, D1194A); construct: 10× stocks of NS3/4A protease enzyme from Bioenza (Mountain View, Calif.); purchased Bioenza (Mountain View, Calif.); assay: HCV protease FRET assay (IC50_APP), Example 16; type: biochemical
pIC50: −log10 of the molar value.
QUANTITY_NAME: pIC50

Problem: Could you share which pIC50 value was measured for C=C[C@@H]1C[C@]1(NC(=O)[C@@H]1C[C@@H](OC(=O)N2Cc3cccc(F)c3C2)CN1C(=O)[C@@H](NC(=O)OC(C)(C)C)[C@@H](C)OC(=O)/C=C/C)C(=O)NS(=O)(=O)C1CC1 ?
Solution: 6.00 to 7.00

Problem: What do you get for C=C[C@@H]1C[C@]1(NC(=O)[C@@H]1C[C@@H](OC(=O)N2Cc3cccc(F)c3C2)CN1C(=O)[C@H](CCC(=O)C=C(C)C)NC(=O)OC(C)(C)C)C(=O)NS(=O)(=O)C1CC1 ?
Solution: 6.00 to 7.00

Problem: Follow-up item: C=CC(=O)NC[C@H](NC(=O)OC(C)(C)C)C(=O)N1C[C@H](OC(=O)N2Cc3cccc(F)c3C2)C[C@H]1C(=O)N[C@]1(C(=O)NS(=O)(=O)C2CC2)C[C@H]1C=C
Solution: 6.00 to 7.00

Problem: Now this one: C=CC(=O)N1CC(C(NC(C)=O)C(=O)N2CC(OC(=O)N3Cc4cccc(F)c4C3)C[C@H]2C(=O)N[C@]2(C(=O)NS(=O)(=O)C3CC3)C[C@H]2C=C)C1 (some centres unmarked)
Solution: 7.00 to 8.00

Problem: Entry C=C[C@@H]1C[C@]1(NC(=O)[C@@H]1CC(OC(=O)N2Cc3cccc(F)c3C2)CN1C(=O)[C@H](CC(=O)C=C(C)C)NC(=O)OC(C)(C)C)C(=O)NS(=O)(=O)C1CC1 (some centres unmarked) please
Solution: 7.00 to 8.00

====

target: HCV NS3/4A 1b protease wild type (Hepatitis C virus genotype 1b, UniProt Q9WMX2); construct: 10× stocks of NS3/4A protease enzyme from Bioenza (Mountain View, Calif.); purchased Bioenza (Mountain View, Calif.); experiment: HCV protease FRET assay (IC50), Example 15; format: biochemical
pIC50: −log10 of the molar value.
What pIC50 was measured for each of the following?

Problem: API: value(readout= pIC50, system= HCV NS3/4A 1b protease wild type (Hepatitis C virus genotype 1b, UniProt Q9WMX2), query= C=C[C@@H]1C[C@]1(NC(=O)[C@@H]1C[C@@H](OC(=O)N2Cc3cccc(F)c3C2)CN1C(=O)CNC(=O)/C=C/C)C(=O)NS(=O)(=O)C1CC1 )
Solution: 7.00 to 8.00

Problem: Request: C=CC(=O)NCC(=O)N1C[C@H](OC(=O)N2Cc3cccc(F)c3C2)C[C@H]1C(=O)N[C@]1(C(=O)NS(=O)(=O)C2CC2)C[C@H]1C=C
Solution: > 8.00

Problem: C=CC(=O)N(C)C[C@H](NC(=O)OC(C)(C)C)C(=O)N1C[C@H](OC(=O)N2Cc3cccc(F)c3C2)C[C@H]1C(=O)N[C@]1(C(=O)NS(=O)(=O)C2CC2)C[C@H]1C=C ?
Solution: > 8.00

Problem: Please do the same for C=CC(=O)NC[C@H](NC(=O)OC(C)(C)C)C(=O)N1C[C@H](OC(=O)N2Cc3cccc(F)c3C2)C[C@H]1C(=O)N[C@]1(C(=O)NS(=O)(=O)C2CC2)C[C@H]1C=C as well.
Solution: > 8.00

====

Tested on: HCV RNA replicon in cell line ET (luc-ubi-neo/ET), human Huh7 hepatoma
Experiment: Replicon luciferase assay, Example 26
Assay type: cell-based
Conditions: Hepatitis C virus, Huh-7, assay of Example 26, 72 hr, read-out: Inhibition, Replicon, EC90 value
Procedure: The compounds were assayed to evaluate the antiviral activity and cytotoxicity of compounds using replicon-derived luciferase activity. […] All cell culture reagents were obtained from Invitrogen (Carlsbad). […] Antiviral activity was measured by analyzing replicon-derived luciferase activity using the Steady-Glo Luciferase Assay System (Promega, Madison, Wis.) according to manufacturer's instruction. The number of cells in each well was determined by Cell Titer Blue Assay (Promega). […]
QUANTITY_NAME: EC90

Problem: # lookup: EC90 of C=CC(=O)N1C/C=C\[C@@H]2C[C@@]2(C(=O)NS(=O)(=O)C2CC2)NC(=O)[C@@H]2CC(OC(=O)N3Cc4cccc(F)c4C3)CN2C(=O)[C@@H](NC(=O)OC(C)(C)C)CCC1 (stereo partly drawn)
Solution: 1000 to 10000 nM

Problem: Moving on to the next compound: C=CC(=O)N1CCC/C=C\[C@@H]2C[C@@]2(C(=O)NS(=O)(=O)C2CC2)NC(=O)[C@@H]2CC(OC(=O)N3Cc4cccc(F)c4C3)CN2C(=O)[C@@H](NC(=O)OC(C)(C)C)C1 (stereo partly drawn)
Solution: 100 to 1000 nM

Problem: Then C=CC(=O)N1CC(C(NC(C)=O)C(=O)N2CC(OC(=O)N3Cc4cccc(F)c4C3)C[C@H]2C(=O)N[C@]2(C(=O)NS(=O)(=O)C3CC3)C[C@H]2C=C)C1 (stereo partly drawn) ?
Solution: 1000 to 10000 nM

====

biological target: HCV NS3/4A 1b protease D168A (Hepatitis C virus genotype 1b, UniProt Q9WMX2, D1194A); construct: 10× stocks of NS3/4A protease enzyme from Bioenza (Mountain View, Calif.); purchased Bioenza (Mountain View, Calif.); test: HCV protease FRET assay (IC50_APP), Example 16; type: biochemical
pIC50: −log10 of the molar value.
I'd be grateful if you could share measured pIC50 for these entries.

Problem: # query: pIC50 | item C=C[C@@H]1C[C@]1(NC(=O)[C@@H]1CC(OC(=O)N2Cc3cccc(F)c3C2)CN1C(=O)[C@H](CC/C=C/C(=O)OC)NC(=O)OC(C)(C)C)C(=O)NS(=O)(=O)C1CC1 (some centres unmarked) | system: HCV NS3/4A 1b protease D168A (Hepatitis C virus genotype 1b, UniProt Q9WMX2, D1194A)
Solution: 6.00 to 7.00

Problem: Same again, this time with C=CC(=O)N1C/C=C\[C@@H]2C[C@@]2(C(=O)NS(=O)(=O)C2CC2)NC(=O)[C@@H]2CC(OC(=O)N3Cc4cccc(F)c4C3)CN2C(=O)[C@@H](NC(=O)OC(C)(C)C)CCC1 (some centres unmarked)
Solution: 7.00 to 8.00

Problem: One more compound: C/C=C/C(=O)OC1CC/C=C\[C@@H]2C[C@@]2(C(=O)NS(=O)(=O)C2CC2)NC(=O)[C@@H]2C[C@@H](OC(=O)N3Cc4cccc(F)c4C3)CN2C(=O)[C@@H](NC(=O)OC(C)(C)C)CC1 (some centres unmarked)
Solution: > 8.00

Problem: Also check C=C[C@@H]1C[C@]1(NC(=O)[C@@H]1C[C@@H](OC(=O)N2Cc3cccc(F)c3C2)CN1C(=O)[C@H](COC(=O)C(=C)NC(=O)OC(C)(C)C)NC(=O)OC(C)(C)C)C(=O)NS(=O)(=O)C1CC1
Solution: > 8.00

Problem: Similarly, C=C[C@@H]1C[C@]1(NC(=O)[C@@H]1C[C@@H](OC(=O)N2Cc3cccc(F)c3C2)CN1C(=O)CNC(=O)/C=C/C)C(=O)NS(=O)(=O)C1CC1 ?
Solution: 5.00 to 6.00

====

molecular target: HCV NS3/4A 1b protease C159S (Hepatitis C virus genotype 1b, UniProt Q9WMX2, C1185S); construct: 10× stocks of NS3/4A protease enzyme from Bioenza (Mountain View, Calif.); assay: HCV protease FRET assay (IC50_APP), Example 16; conditions: reaction started immediately after enzyme addition, read-out: Inhibition (apparent IC50, IC50_APP), HCV C159S
QUANTITY_NAME: IC50

Problem: Please look up its IC50: C=C[C@@H]1C[C@]1(NC(=O)[C@@H]1CC(OC(=O)N2Cc3cccc(F)c3C2)CN1C(=O)[C@H](CC(=O)C=C(C)C)NC(=O)OC(C)(C)C)C(=O)NS(=O)(=O)C1CC1 (stereo partly shown)
Solution: < 10 nM
